molecular target: Cannabinoid receptor 1 (Homo sapiens, UniProt P21554); test: Agonist activity at human CB1 receptor assessed as inhibition of forskolin-induced cAMP production; format: functional
Sequence (P21554 whole entry): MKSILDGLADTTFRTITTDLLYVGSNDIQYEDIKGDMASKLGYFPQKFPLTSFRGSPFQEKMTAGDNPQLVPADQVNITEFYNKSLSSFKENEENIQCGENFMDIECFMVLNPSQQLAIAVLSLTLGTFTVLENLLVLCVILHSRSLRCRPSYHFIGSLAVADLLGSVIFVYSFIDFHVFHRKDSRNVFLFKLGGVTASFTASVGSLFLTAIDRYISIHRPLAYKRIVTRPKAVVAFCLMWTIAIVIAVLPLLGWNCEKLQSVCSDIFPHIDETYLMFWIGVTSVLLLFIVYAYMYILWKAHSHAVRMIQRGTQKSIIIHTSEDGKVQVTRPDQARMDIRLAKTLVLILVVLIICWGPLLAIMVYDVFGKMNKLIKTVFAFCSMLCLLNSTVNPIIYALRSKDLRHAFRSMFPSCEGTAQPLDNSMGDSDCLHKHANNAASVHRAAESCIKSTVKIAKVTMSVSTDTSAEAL
reportedMetric: pEC50
Numbers only, as −log10 of the molar value.

Problem: Which pEC50 value is on record for O=C(NC12CC3CC(CC(C3)C1)C2)c1nn(-c2ccc(Cl)c(Cl)c2)c2c1CCCC2 ?
Result: 7.43

###

molecular target: Cannabinoid receptor 1 (Homo sapiens); experiment: Displacement of [3H]-CP55940 from human CB1 receptor expressed in CHO-K1 cells by liquid scintillation counting; format: cell-based
reportedMetric: pKi
Numbers only, as −log10 of the molar value.

Problem: Which pKi value is on record for Cc1c2n(c(=O)c3cc(OC(=O)C(C)(C)C)cc(OC(=O)C(C)(C)C)c13)CCCC2 ?
Result: 5.58

Reference source for all entries: ChEMBL document CHEMBL3232786
